Provide the reported MFC of each item.
# Test system: Aspergillus fumigatus
# protocolSummary: Antimicrobial activity against Aspergillus fumigatus ATCC 90906
# Type: functional, organism-based

compoundSmiles: C/C=C1\NC(=O)[C@H](Cc2ccccc2)NC(=O)[C@@H](C(C)C)NC(=O)[C@@H]([C@@H](C)CC)NC(=O)[C@H](NC(=O)[C@H](NC(=O)[C@H](CCCN(CCCCCC)CCCCCC)NC(=O)[C@H]2CCCN2C(=O)[C@H](NC(=O)[C@@H](NC(=O)[C@@H](NC(=O)[C@H](NC(=O)CCCC(C)C)C(C)C)[C@@H](C)O)C(C)C)C(C)C)[C@@H](C)CC)[C@@H](C)OC(=O)[C@H](C(C)C)NC1=O
testTarget: Aspergillus fumigatus
measurement: > 20 µM

Batch of 2 compounds: report MFC for each.
1. C/C=C1\NC(=O)[C@H](Cc2ccccc2)NC(=O)[C@@H](C(C)C)NC(=O)[C@@H]([C@@H](C)CC)NC(=O)[C@H](NC(=O)[C@H](NC(=O)[C@H](CCCN)NC(=O)[C@H]2CCCN2C(=O)[C@H](NC(=O)[C@@H](NC(=O)[C@@H](NC(=O)[C@H](NC(=O)CCCC(C)C)C(C)C)C(C)=O)C(C)C)C(C)C)[C@@H](C)CC)[C@@H](C)OC(=O)[C@H](C(C)C)NC1=O
2. C/C=C1\NC(=O)[C@H](Cc2ccccc2)NC(=O)[C@@H](C(C)C)NC(=O)[C@@H]([C@@H](C)CC)NC(=O)[C@H](NC(=O)[C@H](NC(=O)[C@H](CCCNCc2ccc(F)cc2)NC(=O)[C@H]2CCCN2C(=O)[C@H](NC(=O)[C@@H](NC(=O)[C@@H](NC(=O)[C@H](NC(=O)CCCC(C)C)C(C)C)[C@@H](C)O)C(C)C)C(C)C)[C@@H](C)CC)[C@@H](C)OC(=O)[C@H](C(C)C)NC1=O

["> 20 µM", "> 20 µM"]
